Measured OD450 accompanies every entry in the list below.
system-under-test: T1, human MSLN-FL-his protein (human, UniProt Q13421 296-580)
T1 construct: also called human MSLN full-length protein; hMSLN-FL-his; not shown: His tag
T1 sequence (Q13421 other isoform, or with tags, fused parts or gaps): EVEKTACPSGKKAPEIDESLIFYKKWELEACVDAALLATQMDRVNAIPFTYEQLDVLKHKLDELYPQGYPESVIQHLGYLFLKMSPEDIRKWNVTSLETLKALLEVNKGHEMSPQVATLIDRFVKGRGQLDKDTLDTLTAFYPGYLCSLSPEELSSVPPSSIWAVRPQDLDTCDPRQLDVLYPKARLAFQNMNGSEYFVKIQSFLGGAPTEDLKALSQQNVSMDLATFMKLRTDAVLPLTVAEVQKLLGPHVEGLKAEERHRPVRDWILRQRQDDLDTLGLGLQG
assay-comment: ELISA, coated antigen; antibody 0.1 nM

binder: S009-F6-76.1 (antibody, human IgG1, kappa, V domains shown, Human-murine chimeric antibody, human IgG1/kappa constant regions) VH: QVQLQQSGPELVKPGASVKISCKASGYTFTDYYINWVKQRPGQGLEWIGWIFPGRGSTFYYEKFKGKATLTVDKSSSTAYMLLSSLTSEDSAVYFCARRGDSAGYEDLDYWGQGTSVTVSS VL: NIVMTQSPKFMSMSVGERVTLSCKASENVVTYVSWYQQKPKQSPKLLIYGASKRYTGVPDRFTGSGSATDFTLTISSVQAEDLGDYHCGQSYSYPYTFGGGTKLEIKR
OD450 (OD450): 2.4
--
binder: S009-F4-94.15 (antibody, human IgG1, kappa, V domains shown, Human-murine chimeric antibody, human IgG1/kappa constant regions) VH: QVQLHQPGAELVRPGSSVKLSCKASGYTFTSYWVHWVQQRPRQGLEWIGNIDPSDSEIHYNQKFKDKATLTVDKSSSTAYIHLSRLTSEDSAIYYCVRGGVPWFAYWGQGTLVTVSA VL: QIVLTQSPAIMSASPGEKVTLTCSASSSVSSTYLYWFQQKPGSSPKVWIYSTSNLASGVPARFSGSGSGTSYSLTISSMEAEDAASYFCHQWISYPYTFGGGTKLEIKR
OD450 (OD450): 1.57
--
binder: S009-F5-9.16 (antibody, human IgG1, kappa, V domains shown, Human-murine chimeric antibody, human IgG1/kappa constant regions) VH: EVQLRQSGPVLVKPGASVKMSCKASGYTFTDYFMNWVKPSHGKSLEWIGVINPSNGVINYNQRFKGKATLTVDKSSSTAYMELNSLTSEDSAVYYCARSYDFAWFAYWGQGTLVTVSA VL: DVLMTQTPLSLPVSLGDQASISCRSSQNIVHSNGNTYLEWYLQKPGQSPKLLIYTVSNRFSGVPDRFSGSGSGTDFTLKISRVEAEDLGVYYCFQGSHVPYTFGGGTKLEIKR
OD450 (OD450): 0.04
--
binder: S009-F4-127.10 (antibody, human IgG1, kappa, V domains shown, Human-murine chimeric antibody, human IgG1/kappa constant regions) VH: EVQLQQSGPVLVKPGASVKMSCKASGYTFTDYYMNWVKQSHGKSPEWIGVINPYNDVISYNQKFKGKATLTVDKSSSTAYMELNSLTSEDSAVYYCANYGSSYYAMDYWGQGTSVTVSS VL: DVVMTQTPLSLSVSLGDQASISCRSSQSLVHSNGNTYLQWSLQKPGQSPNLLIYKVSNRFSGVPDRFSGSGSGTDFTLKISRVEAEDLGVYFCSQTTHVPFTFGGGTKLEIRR
OD450 (OD450): 0.06
--
binder: S009-F6-62.5 (antibody, human IgG1, kappa, V domains shown, Human-murine chimeric antibody, human IgG1/kappa constant regions) VH: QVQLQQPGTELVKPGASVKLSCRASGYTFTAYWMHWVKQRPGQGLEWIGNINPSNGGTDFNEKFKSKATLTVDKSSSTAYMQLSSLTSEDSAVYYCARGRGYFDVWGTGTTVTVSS VL: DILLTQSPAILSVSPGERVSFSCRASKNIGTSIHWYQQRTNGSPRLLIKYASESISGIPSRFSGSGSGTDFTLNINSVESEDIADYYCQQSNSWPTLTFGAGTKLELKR
OD450 (OD450): 2.45
